- Tested on: NCI-H23 lung
- Test Description: NCI tumour cell line growth inhibition, 48 h
Measured Endpoint: TGI (µM)

1. COc1cccc(/C(C=O)=C(\Cl)c2ccc(OC)c(OC)c2)c1 ... 24.9
2. C=C1CC2(OC1=O)c1ccccc1C=Cc1ccccc12 ... 14.7
3. CC(NC(=O)/C(C#N)=C/c1ccc2[nH]ccc2c1)c1ccccc1 (configuration not stated) ... 43.3

###

- Test system: A549 NSCLC
- Test Description: NCI tumour cell line growth inhibition, 48 h; in the data active = GI50 below about 0.43 µM; inactive = the rest
Outcomes: active, inactive

1) Cc1ccc(S(=O)(=O)NC(CCC(=O)Nc2ccccc2)C(=O)Nc2ccccc2)cc1 (stereo not drawn) ... active
2) COc1ccc(OC)c(-c2cc(-c3ccccc3)nn2-c2ccc(S(N)(=O)=O)cc2)c1 ... inactive
3) COc1cc(-c2nc(SCC(=O)Nc3ccc(C(C)=O)cc3)[nH]c(=O)c2C#N)cc(OC)c1OC ... inactive
4) O=C1C(Cl)=C(Nc2cccc(C(F)(F)F)c2)C(=O)N1Cc1ccccc1Cl ... inactive
5) CCCC(=O)NC(c1ccc2c(c1)OCO2)c1ccc2cccnc2c1O (stereo not drawn) ... inactive
6) Cc1c2ncccc2nc2[nH]c3ccc(OCCN(C)C)cc3c12 ... inactive
7) CN1CCN(Cc2ccc(NC(=O)c3[nH]ncc3Nc3ncnc4sccc34)cc2)CC1 ... active
8) CCOC(=O)c1c(C)n(CC(C)C)c2c1cc1oc(=O)c(=O)n3cnc2c13 ... inactive

###

- Tested on: NCI-H460 lung
- Test Description: NCI tumour cell line growth inhibition, 48 h
Measured Endpoint: log10 of TGI (log10 of the value in µM)

1. Cc1ccccc1-n1c(/C=C\c2ccccn2)nc2ccccc2c1=O ... 1.62
2. CC1(C)[C@@H]2C[C@H]1C(Cc1ccc(C[C@H]3c4cc(-c5ccccn5)ncc4[C@H]4C[C@@H]3C4(C)C)cc1)c1cc(-c3ccccn3)ncc12 (stereo partly drawn) ... 1.14
3. c1ccc([C@@H]2N[C@@]3(CO[Si](c4ccccc4)(c4ccccc4)c4ccccc4)CC[C@H]4CN[C@@H]2[C@H]43)cc1 ... 1.40
4. C[C@H]1CCC/C=C/[C@@H]2C[C@H](O)C[C@H]2[C@H](O)[C@@H](S(=O)CCN)CC(=O)O1 (stereo partly drawn) ... -1.13
5. O=C1C(Cl)=C(Nc2cccc(C(F)(F)F)c2)C(=O)N1Cc1ccccc1Cl ... 1.35
6. O=C1/C(=C/c2ccc([N+](=O)[O-])s2)Oc2ccccc21 ... 0.55
7. COc1cc(OC)c(OC)cc1/C=C1\C=Cc2ccccc21 ... 1.58

###

Known TGI of a selection of molecules
- Tested on: HOP-92 NSCLC
- Test Description: NCI tumour cell line growth inhibition, 48 h
Measured Endpoint: TGI (µM)

1. CC1(C)C=C(/C=N/Nc2ccc(Br)cc2)C(C#N)=C(O)C1(C#N)C#N ... 65.7
2. CCOC(=O)CNC(=O)CCCn1c(=O)c2c3ccccc3n(C)c2n2nnc(-c3ccccc3)c12 ... 14.8
3. Cc1ccc(S(=O)(=O)NC(CCC(=O)Nc2ccccc2)C(=O)Nc2ccccc2)cc1 (stereo unspecified) ... 0.544
4. COc1ccc(CNc2nc(NCc3ccc(OC)cc3)nc(NC(C)C)n2)cc1 ... 48.7

###

Parameter: TGI. Scope: all listed entries.
- Tested on: NCI-H460 lung
- Test Description: NCI tumour cell line growth inhibition, 48 h
Measured Endpoint: TGI

1) Cc1c(C2Cc3ccccc3N2C(=O)/C=C\C(=O)O)c2ccccc2n1C (stereo not drawn) ... > 100 µM
2) CC(=O)O[C@H]1C(=O)[C@@]2(C)[C@H]([C@H](OC(=O)c3ccc([N+](=O)[O-])cc3)[C@]3(O)C[C@H](OC(=O)[C@H](O)[C@@H](NC(=O)c4ccccc4)c4ccccc4)C(C)=C1C3(C)C)[C@]1(OC(C)=O)CO[C@@H]1C[C@@H]2O ... > 25 µM
3) COC1C=C(NCC2(CO)CCC2)NC(N)=N1 (stereo not drawn) ... > 100 µM
4) Cc1cn(CC2=NCC(C)(C)CN2)c(=O)[nH]c1=O ... > 100 µM
5) COc1cc(/C=C2/SC(c3ccccc3)N(c3ccc(Cl)cc3)C2=O)cc(OC)c1OC (stereo not drawn) ... > 100 µM
6) CC(C)CC(CNC(Cc1ccc(Cl)cc1)C(N)=O)NC(=O)C(Cc1cnc[nH]1)NC(=O)CNC(=O)C(NC(=O)C(C)NC(=O)C(Cc1c[nH]c2ccccc12)NC(=O)C(CCC(=O)O)NC(=O)C(N)Cc1ccccc1)C(C)C (stereo not drawn) ... > 133 µM
7) C=C1C(=O)O[C@H]2[C@H]1[C@H](OC(=O)/C(C)=C\C)C[C@]1(CO1)[C@@H]1[C@H](OC(C)=O)C=C(C)[C@]21O ... > 89.8 µM
8) O=[N+]([O-])/C(Cl)=C(\Nc1ccccc1)C(Cl)=C(Cl)Cl ... > 100 µM
9) C#CCCOC1(OC)N=NC(C)(C)O1 (stereo not drawn) ... > 100 µM
10) Cc1cccc2c1Oc1cc(Cl)ccc1C2NC(=O)CN(C)C (stereo not drawn) ... > 100 µM
11) CCN(Cc1nc2cc(C(F)(F)F)ccc2nc1-c1ccccc1)c1ccc(OC)c(OC)c1 ... > 100 µM
12) CN(C)[C@@H]1C(=O)C(C(=O)NCNCCCC(=O)O)=C(O)[C@@]2(O)C(=O)C3=C(O)c4c(O)cccc4[C@@](C)(O)[C@H]3C[C@@H]12 ... > 100 µM
13) COC(=O)C1=C(c2cc(OC)c(OC)c(OC)c2)OC(c2cc(OC)c(OC)c(OC)c2)C1COC(C)=O (stereo not drawn) ... > 100 µM
14) COc1ccc(CCNCc2cccc(OC)c2OC)cc1OC ... > 100 µM
15) CN(C)CCCSc1c2ccccc2nc2cc(NCC(=O)Nc3ccccc3-c3ccccc3NC(=O)CNc3ccc4c(SCCCN(C)C)c5ccccc5nc4c3)ccc12 ... > 100 µM
16) CS(=O)(=O)c1[nH]nc2[nH]c(=O)[nH]c(=O)c12 ... > 10 µM
17) CCOC(=O)C1=C(NC(C)(C)C)OCC1=O ... > 100 µM
18) Cc1ncc(CO)c(CN)c1O ... > 100 µM
19) COC(C/C(=C/CO[Si](C(C)C)(C(C)C)C(C)C)C(=O)Nc1ccccc1I)OC ... > 100 µM
20) Cn1cnc([N+](=O)[O-])c1SCC(=O)O ... > 100 µM
21) NC(=O)C(=CN1C(=O)CC(=O)NC1=S)C(N)=O ... > 100 µM
22) COc1ccc2c(c1OC)-c1c(c3ccc([N+](=O)[O-])cc3c(=O)n1CCCN=[N+]=[N-])C2=O ... > 100 µM
23) NC(=O)C12C3C4C1C1C2C3C41C(N)=O (stereo not drawn) ... > 100 µM

###

Quick list: TGI per entry.
- Test system: NCI/ADR-RES ovarian
- Test Description: NCI tumour cell line growth inhibition, 48 h
Measured Endpoint: TGI

1. CCCCCC(=O)OCC(=O)O[C@@H]1C[C@]2(C(C)C)O[C@@]1(C)[C@@H]1CC[C@@H](C)[C@H]1[C@@H]2OC(=O)/C=C/c1ccccc1 ... > 70.6 µM
2. Cn1c2ccccc2c(=O)c2c(O)cc3c(c21)C=CC1(CCCC1)O3 ... > 100 µM
3. NC(=O)C(=CN1C(=O)CC(=O)NC1=S)C(N)=O ... > 100 µM
4. CCCC[P+](c1ccccc1)(c1ccccc1)c1ccccc1 ... > 100 µM
5. O=C(O)c1ccccn1 ... > 100 µM
6. Nc1nc(N)nc(-c2cnccn2)n1 ... > 100 µM
7. C[n+]1cccc(/C=C/c2ccc3cccc(O)c3n2)c1 ... > 100 µM
8. CCCC(=O)N/S(=N/S(=O)(=O)c1ccc(Cl)cc1)C(Cl)(Cl)Cl (centres undefined) ... > 100 µM
9. O=c1oc2ccccc2cc1-c1nnc(-c2ccccc2)s1 ... > 67.2 µM
10. CC(C)(C)C1CCC2(CC1)CCN(CCCN1CCOCC1)CC2 ... > 100 µM
11. Cc1cc(S(=O)(=O)Nc2nc(N)nc(N3CCOCC3)n2)c(SCC(=O)O)cc1Cl ... > 10 µM
12. C=C(C)[C@@H]1CC[C@@H](C)[C@](O)([C@@H]2C[C@@H]([C@H](COC(=O)c3ccccc3)OC(=O)c3ccccc3)OC2=O)C1 ... > 100 µM
13. c1ccc2c[n+](CCCCCCCCCC[n+]3ccc4ccccc4c3)ccc2c1 ... > 10 µM
14. CCOC(=O)CNC(=O)CCCn1c(=O)c2c3ccccc3n(C)c2n2nnc(-c3ccccc3)c12 ... > 50 µM
